Kindly state IC50 for each of the entries shown.
test system: Plasmodium falciparum; assay: Inhibition of Plasmodium falciparum W2; settings: read-out: IC50
Report the value in µM with no unit label.

Enquiry: Find IC50 for COc1ccc(C(=O)/C=C/c2ccc(F)cc2F)c(OC)c1 on Plasmodium falciparum and write it down.
Return: 11.1

Enquiry: Find IC50 for COc1ccc(/C=C/C(=O)c2ccncc2)c(OC)c1OC on Plasmodium falciparum and write it down.
Return: 3.2

Enquiry: Find IC50 for COc1cccc(OC)c1/C=C/C(=O)c1ccc2ccccc2c1 on Plasmodium falciparum and write it down.
Return: 3.3

Enquiry: Find IC50 for COc1cc(/C=C/C(=O)c2ccc3ccccc3c2)cc(OC)c1 on Plasmodium falciparum and write it down.
Return: 9.5

Enquiry: Find IC50 for COc1ccc(C(=O)/C=C/c2ccc(Cl)cc2Cl)c(OC)c1 on Plasmodium falciparum and write it down.
Return: 3.8
